Recorded ε (60 seconds)-ε (0 second), one value per entry.
# experiment_description: Photochromic characteristics of cast polymethyl methacrylate film (coloration under mercury lamp, fading)
# Type: physicochemical
# run_parameters: PMMA film, 1.0×10^-4 mol/g, 0.1 mm; mercury lamp 60 seconds, 35° C.; absorbance at λmax
Output: the number by itself.

Completed entries (count: 8):
[
  {
    "compound": "CN1c2cc3occc3cc2C2(CC3CCC2C3)C12C=Nc1ccc3ccccc3c1O2 (stereo not drawn)",
    "measurement_name": "ε (60 seconds)-ε (0 second)",
    "experimental_result": 1.4
  },
  {
    "compound": "CCC1(CC)c2ccc(N(C)C)cc2N(CCc2ccccc2)C12C=Nc1c(Cl)cc3cc(OC)ncc3c1O2 (stereo not drawn)",
    "measurement_name": "ε (60 seconds)-ε (0 second)",
    "experimental_result": 1.7
  },
  {
    "compound": "CN1c2c(F)cc(F)cc2C2(CCCCC2)C12C=Nc1ccc3cnccc3c1O2 (stereo not drawn)",
    "measurement_name": "ε (60 seconds)-ε (0 second)",
    "experimental_result": 1.7
  },
  {
    "compound": "CCC1(CC)c2cc(C(F)(F)F)ccc2N(Cc2ccccc2)C12C=Nc1cc(Cc3ccccc3)c3c(C)cncc3c1O2 (stereo not drawn)",
    "measurement_name": "ε (60 seconds)-ε (0 second)",
    "experimental_result": 1.6
  },
  {
    "compound": "COc1cc2c(c3ccccc13)OC1(C=N2)N(c2ccccc2)c2ccccc2C12CCCC2 (stereo not drawn)",
    "measurement_name": "ε (60 seconds)-ε (0 second)",
    "experimental_result": 1.2
  },
  {
    "compound": "CCCCN1c2cc(CC)ccc2C2(CC3CCC2C3)C12C=Nc1c(N)cc3occc3c1O2 (stereo not drawn)",
    "measurement_name": "ε (60 seconds)-ε (0 second)",
    "experimental_result": 1.2
  },
  {
    "compound": "Cc1cc2ccncc2c2c1N=CC1(O2)N(C(C)C)c2ccc(Cl)cc2C1(C)C (stereo not drawn)",
    "measurement_name": "ε (60 seconds)-ε (0 second)",
    "experimental_result": 1.6
  },
  {
    "compound": "CN1c2ccc(Cl)cc2C2(C3CC4CC(C3)CC2C4)C12C=Nc1cc(N3CCCCC3)c3ncccc3c1O2 (stereo not drawn)",
    "measurement_name": "ε (60 seconds)-ε (0 second)",
    "experimental_result": 1.2
  }
]

Return reported ε (60 seconds)-ε (0 second); argument: COc1ccc2c(c1)C1(CCCCC1)C1(C=Nc3ccc4cc5[nH]ccc5cc4c3O1)N2C (stereo not drawn)
1.2

Return reported ε (60 seconds)-ε (0 second); argument: CCC1(CC)c2cc(O)cnc2N(C)C12C=Nc1ccc3ncccc3c1O2 (stereo not drawn)
1.7

Return reported ε (60 seconds)-ε (0 second); argument: CN1c2cc3ncc(-c4ccsc4)cc3cc2C2(C3CC4CC(C3)CC2C4)C12C=Nc1ccc3ccccc3c1O2 (stereo not drawn)
1.3

Return reported ε (60 seconds)-ε (0 second); argument: CCCN1c2ccc(C(F)(F)F)cc2C2(C3CC4CC(C3)CC2C4)C12C=Nc1ccc3ccccc3c1O2 (stereo not drawn)
1.4
